meta.source: paper PMC12416549

- Experimental target: T1, TNFR1 (Homo sapiens, UniProt P19438)
- T1 chain: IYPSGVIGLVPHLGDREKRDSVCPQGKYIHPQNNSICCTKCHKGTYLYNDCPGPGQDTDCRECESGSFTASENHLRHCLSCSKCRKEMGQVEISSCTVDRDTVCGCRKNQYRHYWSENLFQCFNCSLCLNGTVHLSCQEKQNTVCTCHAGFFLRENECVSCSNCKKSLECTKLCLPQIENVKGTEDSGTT
- Assay procedure: yeast display SC50
Property measured: apparent Kd (screen) (nM)

(a) E44D (designed binder) SMEEEVEKAAKEYEKKKKEAIEKHLEKLKAKDKEAAERFLKELDEAAKEYAKDEAKTMSEEEAKRRAKKYKEKVLLSELSEEEQKEIKEAEEKLVRTILKYVEEAAK
(b) T57K (designed binder) SMEEEVEKAAKEYEKKKKEAIEKHLEKLKAKDKEAAERFLKELEEAAKEYAKDEAKKMSEEEAKRRAKKYKEKVLLSELSEEEQKEIKEAEEKLVRTILKYVEEAAK
Ask: Which item exceeds the other in apparent Kd (screen), a or b ? Could you answer with the label of the item you picked?
Reply: a
(a: 0.869 nM, b: 0.446 nM)
